Origin of the recorded values: BindingDB's records for patent US20250213705

MEASURED ON: Glutamate carboxypeptidase 2 (Homo sapiens)
Sequence (Q04609 whole entry): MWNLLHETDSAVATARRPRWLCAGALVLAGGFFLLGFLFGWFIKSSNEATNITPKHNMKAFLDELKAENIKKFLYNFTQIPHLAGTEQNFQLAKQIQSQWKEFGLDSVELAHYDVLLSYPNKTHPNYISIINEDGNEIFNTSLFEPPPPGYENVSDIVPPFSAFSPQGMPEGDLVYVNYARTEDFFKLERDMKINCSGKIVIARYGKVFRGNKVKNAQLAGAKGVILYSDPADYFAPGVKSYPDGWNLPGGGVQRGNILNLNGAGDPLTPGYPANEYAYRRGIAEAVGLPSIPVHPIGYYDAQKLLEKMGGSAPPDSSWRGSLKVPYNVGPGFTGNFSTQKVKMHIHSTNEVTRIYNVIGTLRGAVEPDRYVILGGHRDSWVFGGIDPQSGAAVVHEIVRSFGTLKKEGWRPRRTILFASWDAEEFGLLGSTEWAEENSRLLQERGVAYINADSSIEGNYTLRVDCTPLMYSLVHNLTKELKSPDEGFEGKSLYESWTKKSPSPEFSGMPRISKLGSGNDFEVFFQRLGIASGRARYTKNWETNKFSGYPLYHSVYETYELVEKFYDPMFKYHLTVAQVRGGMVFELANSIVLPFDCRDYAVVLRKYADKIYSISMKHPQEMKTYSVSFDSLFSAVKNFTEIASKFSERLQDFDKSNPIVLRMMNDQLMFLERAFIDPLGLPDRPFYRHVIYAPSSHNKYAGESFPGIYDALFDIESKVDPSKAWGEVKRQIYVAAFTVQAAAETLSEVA
READOUT LABEL: pKi
Please report pKi as the negative decimal logarithm of the molar concentration, giving only the number.

COMPOUND | pKi
CC(=O)NCCOCCOCCOCCC(=O)N[C@@H]1C[C@@H](C(=O)NCC(=O)N[C@@H](Cc2ccc3ccccc3c2)C(=O)NCCCC[C@H](NC(=O)N[C@@H](CCC(=O)O)C(=O)O)C(=O)O)N(C(=O)CCCOc2cc(C#N)cc(C#N)c2)C1 [US20250213705, Compound 92] | 9.24
CC(=O)NCCOCCOCCOCCC(=O)NC[C@H]1CC[C@H](C(=O)N[C@@H](Cc2ccc3ccccc3c2)C(=O)NCCCC[C@H](NC(=O)N[C@@H](CS)C(=O)O)C(=O)O)CC1 [US20250213705, Compound 28] | 6.82

Exercise: State, for Glutamate carboxypeptidase 2 (Homo sapiens), measured pKi of the compound listed here: CC(=O)NCCOCCOCCOCCC(=O)N[C@@H](Cc1ccc(C(=O)O)cc1)C(=O)NCC(=O)N[C@@H](Cc1ccc2ccccc2c1)C(=O)NCCCC[C@H](NC(=O)N[C@@H](CCC(=O)O)C(=O)O)C(=O)O [US20250213705, Compound 94]
Key: 10.89
